Reference source for all entries: patent US20150231147A1

- methodNotes: Serum noribogaine pharmacokinetics in patients, Phase IB study
- Type: in vivo, human
- conditionInfo: human; Cohort 3 (180 mg), opioid-dependent patients, serum, mean ± SD
quantity: half-life (h)
Quick note: give the figure in h, leave out the unit.

Query: Looking for the measured half-life of CC[C@H]1CC2C[C@H]3c4[nH]c5ccc(O)cc5c4CCN(C2)C13 , can you help?
Response: 23.9

---

- methodNotes: Plasma noribogaine pharmacokinetics, ascending single oral dose, healthy volunteers
- Format: in vivo, human
- conditionInfo: human; healthy male volunteers, single oral 10 mg noribogaine, plasma, mean (n = 6)
quantity: Vd/F (L)
Lab book: enter the figure in L, no units written.

Query: Vd/F lookup needed for CC[C@H]1CC2C[C@H]3c4[nH]c5ccc(O)cc5c4CCN(C2)C13 [Noribogaine] , thanks.
Response: 3090
